B1: OR4K15 (parent)
chain: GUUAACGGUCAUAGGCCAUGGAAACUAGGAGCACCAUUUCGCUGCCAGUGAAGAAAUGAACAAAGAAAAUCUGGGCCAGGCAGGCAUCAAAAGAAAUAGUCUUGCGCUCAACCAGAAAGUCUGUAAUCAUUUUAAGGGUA

- Variants of: B1
- assay_summary: self-cleavage, relative activity (ratio to wild type); higher = more cleavage; in vitro, sequencing; the parent is a self-cleaving ribozyme
I would appreciate it if you labelled entries criterion met when self-cleavage is 0.9 or higher, otherwise criterion not met.

Consider the worked cases shown below.
mutation_notation: U38C A92U
cat: criterion met
//
mutation_notation: U97C U108C
cat: criterion not met
//
mutation_notation: A64G G136U
cat: criterion met
//
mutation_notation: C6A U122C
cat: criterion not met
//
mutation_notation: U39C U87C
cat: criterion met
//
mutation_notation: U87C A111G
cat: criterion not met
//
mutation_notation: A90G U100A
cat: criterion not met
//
mutation_notation: A27G A52C
cat: criterion met

Prompt: Dear colleague, could you confirm whether A47U A68G has self-cleavage at or above 0.9?
Completion: criterion not met

Prompt: Answer whether self-cleavage of U39C A92U is greater than or equal to 0.9.
Completion: criterion met
